Recorded Plant response rating, Crabgrass, Large, one value per entry.
Test system: large (Lg) crabgrass (Digitaria sanguinalis)
Test: Test C pre-/postemergence greenhouse test, plant response rating 0-100
Format: in vivo
Details: Postemergence, 250 g ai/ha; scale 0 to 100
READOUT_NAME: Plant response rating, Crabgrass, Large

> print(dat)
                                item.smiles                             readout.name  quantitative.result
1  O=C(c1ccccc1)c1cn(S(=O)(=O)CCl)nc1-c1cc(Cl)cc(Cl)c1  Plant response rating, Crabgrass, Large                    0
2  O=C(c1ccccc1)c1cn(S(=O)(=O)CC(F)(F)F)nc1-c1cc(Cl)cc(Cl)c1  Plant response rating, Crabgrass, Large                    5
3  Fc1ccc(NN=C(c2ccccc2)c2c[nH]nc2-c2cc(Cl)cc(Cl)c2)cc1  Plant response rating, Crabgrass, Large                    5
4  Cn1cc(C(=O)c2ccccc2)c(-c2cc(Br)cc(Br)c2)n1  Plant response rating, Crabgrass, Large                    0
5  CCn1cc(C(=NN2CCCC2)c2ccccc2)c(-c2cc(Cl)cc(Cl)c2)n1  Plant response rating, Crabgrass, Large                   10
6  Fc1ccccc1NN=C(c1ccccc1)c1c[nH]nc1-c1cc(Cl)cc(Cl)c1  Plant response rating, Crabgrass, Large                    5
7  O=C(c1ccccc1)c1cn(S(=O)(=O)C(F)(F)F)nc1-c1cc(Cl)cc(Cl)c1  Plant response rating, Crabgrass, Large                    0
8  C=CCn1cc(C(=O)c2ccccc2)c(-c2cc(Cl)cc(Cl)c2)n1  Plant response rating, Crabgrass, Large                    5

====

System: giant foxtail (Setaria faberii)
Assay: Test A pre-/postemergence greenhouse herbicide test, visual injury rating 0-100
Type: in vivo
Settings: Postemergence, 1000 g ai/ha
Recorded Plant response rating (0 to 100 scale), Foxtail, Giant, one value per entry.
READOUT_NAME: Plant response rating (0 to 100 scale), Foxtail, Giant

> print(dat)
                                item.smiles  quantitative.result
1  ON=C(c1ccccc1)c1c[nH]nc1-c1cc(Cl)cc(Cl)c1                   10
2  CON=C(c1ccccc1)c1c[nH]nc1-c1cc(Cl)cc(Cl)c1                    0
3  Clc1cccc(NN=C(c2ccccc2)c2c[nH]nc2-c2cc(Cl)cc(Cl)c2)c1                    0
4  N#CN=C(c1ccccc1)c1c[nH]nc1-c1cc(Cl)cc(Cl)c1                    0
5  Cn1cc(C(=NN2CCCC2)c2ccccc2)c(-c2cc(Cl)c(Cl)c(Cl)c2)n1                    0

====

Test system: lambsquarters (Chenopodium album)
Experiment: Test C pre-/postemergence greenhouse test, plant response rating 0-100
Assay type: in vivo
Conditions: Postemergence, 250 g ai/ha; scale 0 to 100
Mark each entry Yes if its Plant response rating, Lambsquarters sits below 80, and No for all others.

> print(dat)
                                item.smiles  assigned.category
1  CC(C)n1cc(C(=O)c2ccccc2)c(-c2cc(Cl)cc(Cl)c2)n1                Yes
2  O=C(c1ccccc1)c1cn(S(=O)(=O)C(F)(F)F)nc1-c1cc(Cl)cc(Cl)c1                 No
3  Fc1cccc(NN=C(c2ccccc2)c2c[nH]nc2-c2cc(Cl)cc(Cl)c2)c1                 No
4  CCn1cc(C(=NN2CCCC2)c2ccccc2)c(-c2cc(Cl)cc(Cl)c2)n1                Yes
5  CCn1cc(C(=O)c2ccccc2)c(-c2cc(Br)cc(Br)c2)n1                 No
6  C=CCn1cc(C(=O)c2ccccc2)c(-c2cc(Cl)cc(Cl)c2)n1                Yes

Recorded values, source patent US10167262B2.
